Assign cell viability, A375 XP, 10μΜ to each entry below.
# Tested on: A375-XP cells (Vemurafenib-resistant)
# protocol notes: Kinase inhibitor library screening, PrestoBlue cell viability, 1 or 10 μM, 72 h
# protocol conditions: A375 XP, 10μΜ, 72 h; in %
Give bare numbers.

Examples with answers:
- N#C/C(=C\c1ccc(O)c(O)c1)C(=O)NCc1ccccc1: 91.1
- COc1cc2ncnc(Nc3cccc(Cl)c3)c2cc1OC: 98.9
- Cc1cnc(Nc2ccc(OCCN3CCCC3)cc2)nc1Nc1cccc(S(=O)(=O)NC(C)(C)C)c1 [TG101348 (SAR302503)]: 17.0
- CN1CCN(c2ccc3nc(-c4c(N)c5c(F)cccc5[nH]c4=O)[nH]c3c2)CC1: 58.3
- CN(c1ncccc1CNc1nc(Nc2ccc3c(c2)CC(=O)N3)ncc1C(F)(F)F)S(C)(=O)=O: 3.4
- CC(=O)Nc1cccc(-n2c(=O)n(C3CC3)c(=O)c3c(Nc4ccc(I)cc4F)n(C)c(=O)c(C)c32)c1: 14.6

Report cell viability, A375 XP, 10μΜ for each item below.
1. Cc1cnc(Nc2ccc(N3CCN(C)CC3)cc2)nc1Nc1cccc(S(=O)(=O)NC(C)(C)C)c1
2. O=C1NC(=O)C(c2ccccc2[N+](=O)[O-])=C1Nc1ccc(O)c(Cl)c1

Response:
13.1
92.8
